Examples of compounds with documented CC50 at 72 h follow.
Test: Replicon Assay (Example B), Alamar Blue cytotoxicity CC50
Assay type: cell-based
Details: human, lower value of the cell pair
Excerpt: […]

Look over these answered cases.
CC[C@@H](N[C@@H](C)CC(N)=O)c1ccc(Cl)c(C(=O)c2ccc(F)cc2)c1F [Example 97]; > 3 µM
CCC(NC1CCCC1C(N)=O)c1ccc(Cl)c(C(=O)c2ccc(N)nc2)c1F (single isomer, unassigned) [Example 125]; > 3 µM
C[C@@H](CC(N)=O)N[C@@H](c1ccc(Cl)c(C(=O)c2ccncc2)c1F)C1CC1 [Example 134]; > 3 µM
C=CC[C@@H](N[C@@H](C)CC(N)=O)c1ccc(Cl)c(C(=O)c2ccc(N)nc2)c1F [Example 256]; > 1 µM
C[C@@H](CC(N)=O)N[C@@H](c1ccc(Cl)c(C(=O)c2ccc(F)cc2)c1F)C1CC1 [Example 121]; > 3 µM

Task: Requested read-out: CC50 at 72 h. Entry: C[C@@H](CC(N)=O)N[C@@H](c1ccc(Cl)c(C(=O)c2ccc(N)cn2)c1F)C1CC1 [Example 237]
Result: > 1 µM

Task: Requested read-out: CC50 at 72 h. Entry: COc1cc(C(=O)c2c(Cl)ccc([C@H](N)C3CC3)c2F)ccc1C#N [Example 69]
Result: > 1 µM

Task: Requested read-out: CC50 at 72 h. Entry: CC[C@@H](N[C@@H](C)CC(N)=O)c1ccc(Cl)c(C(=O)c2ccc(-n3cc(CO)cn3)nc2)c1F [Example 159]
Result: > 10 µM

Task: Requested read-out: CC50 at 72 h. Entry: CC[C@@H](N[C@@H](C)C1(C(N)=O)CC1)c1ccc(Cl)c(C(=O)c2cccnc2)c1F [Example 132]
Result: > 3 µM

###

Target: full length NS3/4a (Hepatitis C virus genotype 1b (isolate BK) (HCV))
Experiment: NS3 Protease Assay (Example A), FRET-based
Format: biochemical
Conditions: HCV NS3 protease assay, full length NS3/4a; read-out: Assay A IC50 (μM) average
Mark t for IC50 under 0.5 µM, f if at or over.

Sample answers from the record:
CC[C@@H](NC1CC1)c1ccc(Cl)c(C(=O)c2cccnc2)c1F [Example 296]; f
CC[C@@H](N[C@H](C)CC(=O)NCCN)c1ccc(Cl)c(C(=O)c2ccc(N)nc2)c1F [Example 241]; t
COc1ccc([C@H](N[C@@H](C)CC(N)=O)C2CC2)c(F)c1C(=O)c1ccc(F)cc1 [Example 210]; t
CC[C@@H](N[C@@H](C)CC(N)=O)c1ccc(Cl)c(C(=O)c2ccc(C#N)nc2)c1F [Example 133]; t

For the next question, use this compound.
Task: Please determine if CC[C@@H](N[C@@H](C)CC(N)=O)c1ccc(OC)c(C(=O)c2ccccc2)c1F [Example 152] is below 0.5 µM in terms of IC50.
Result: t

###

Target: full length NS3/4a (Hepatitis C virus genotype 1b (isolate BK) (HCV))
Assay: NS3 Protease Assay (Example A), FRET-based
Type: biochemical
Details: read-out: IC50 against the protease activity of the full length NS3/4a
Examples of compounds with documented IC50 follow.

Look over these answered cases.
CC[C@@H](N[C@@H](C)CC(N)=O)c1ccc(Cl)c(C(=O)c2ccc(N)c(C)c2)c1F; < 1 µM
CC[C@@H](N[C@H](C)CC(N)=O)c1ccc(Cl)c(C(=O)c2ccc(NC)nc2)c1F; 1 to 5 µM

Task: Requested read-out: IC50. Entry: CC[C@@H](NCC(C)(C)C(N)=O)c1ccc(Cl)c(C(=O)c2cccnc2)c1F
Result: 1 to 5 µM

###

Biological target: full length NS3/4a (Hepatitis C virus genotype 1b (isolate BK) (HCV), UniProt P26663)
Sequence (P26663 1027-1657): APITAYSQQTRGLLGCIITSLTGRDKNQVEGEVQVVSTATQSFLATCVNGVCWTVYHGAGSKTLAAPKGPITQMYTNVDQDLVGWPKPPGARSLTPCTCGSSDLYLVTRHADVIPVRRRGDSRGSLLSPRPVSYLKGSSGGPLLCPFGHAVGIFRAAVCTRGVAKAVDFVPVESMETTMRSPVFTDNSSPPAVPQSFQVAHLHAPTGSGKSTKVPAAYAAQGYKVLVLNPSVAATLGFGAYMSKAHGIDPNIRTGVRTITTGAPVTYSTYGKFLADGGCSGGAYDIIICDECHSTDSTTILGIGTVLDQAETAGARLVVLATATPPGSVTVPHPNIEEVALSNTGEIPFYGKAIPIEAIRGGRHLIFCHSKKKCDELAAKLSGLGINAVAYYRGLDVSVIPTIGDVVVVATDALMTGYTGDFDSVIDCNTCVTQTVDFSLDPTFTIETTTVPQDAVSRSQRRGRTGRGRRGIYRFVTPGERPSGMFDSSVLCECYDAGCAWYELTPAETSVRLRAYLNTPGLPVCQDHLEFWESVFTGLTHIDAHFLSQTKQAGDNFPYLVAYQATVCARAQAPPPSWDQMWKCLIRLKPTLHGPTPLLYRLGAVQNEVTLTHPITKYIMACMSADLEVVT
Test: NS3 Protease Assay (Example A), FRET-based
Format: biochemical
Conditions: HCV NS3 protease assay, full length NS3/4a; read-out: Assay A IC50 (μM) average
test_readout: IC50 (µM)
Give a bare numeral; the unit µM is implied.

CC[C@@H](N[C@H](C)CC(N)=O)c1ccc(Cl)c(C(=O)c2cnc(N)cn2)c1F; 3.4

Task: Requested read-out: IC50. Entry: CC[C@@H](N[C@H](C)c1cnc[nH]1)c1ccc(Cl)c(C(=O)c2cccnc2)c1F
Result: 4.7

Task: Requested read-out: IC50. Entry: [2H]C([2H])([2H])C([2H])([2H])[C@@H](N[C@H](C)CC(N)=O)c1ccc(Cl)c(C(=O)c2ccc3c(c2)OCC(=O)N3)c1F
Result: 1

Task: Requested read-out: IC50. Entry: CC[C@@H](N)c1ccc(Cl)c(C(=O)c2ccc3c(c2)OCCN3)c1F
Result: 0.16

Task: Requested read-out: IC50. Entry: CC[C@@H](N[C@@H](C)CC(N)=O)c1ccc(Cl)c(C(=O)c2ccns2)c1F
Result: 0.07

Task: Requested read-out: IC50. Entry: CC[C@@H](N[C@@H](C)CC(N)=O)c1ccc(Cl)c(C(=O)c2ccc3c(c2)OCCN3)c1F
Result: 0.27

###

Biological target: full length NS3/4a (Hepatitis C virus genotype 1b (isolate BK) (HCV))
Experiment: NS3 Protease Assay (Example A), FRET-based
Type: biochemical
Settings: HCV NS3 protease assay, full length NS3/4a; read-out: Assay A IC50 (μM) average
test_readout: IC50 (µM)
Give a bare numeral; the unit µM is implied.

C[C@@H](CC(N)=O)NCc1ccc(Cl)c(C(=O)c2ccccc2)c1F; 0.45
CC[C@@H](N)c1ccc(Cl)c(C(=O)c2cnc(N)cn2)c1F; 1.3
CC[C@@H](N[C@H](C)CC(N)=O)c1ccc(OC)c(C(=O)c2ccccc2)c1F; 0.49

We now examine a further molecule.
Task: Requested read-out: IC50. Entry: CC[C@@H](N)c1ccc(Cl)c(C(=O)c2ccccn2)c1F
Result: 2.5
